Exercise: state measured log10 IC50 for each of the compounds provided.
- test_system: TYK2 (Homo sapiens)
- assay_notes: TYK2 kinase inhibition (Table A1)
- Assay type: biochemical
- settings: Table B1
Structures can show the parent of a compound that is named as a salt.
Give log10 of IC50, with IC50 taken in nM.

Example cases with answers are listed next.
Report log10 IC50 for O=C(NCCN1CCCCC1)Nc1ccc2cc1CCc1cccc(c1)Nc1ncc(Cl)c(n1)N2 [Example B258, bis(trifluoroacetate)] 1.38

Determine its reported log10 IC50: N#Cc1ccc(N2CCN(C(=O)Nc3ccc4cc3CCc3cncc(c3)Nc3ncc(Cl)c(n3)N4)CC2)cc1 [Example B303, tris(trifluoroacetate)] 1.56

List reported log10 IC50 for each of these compounds:
1. COc1cccc(CN2CCN(Cc3cc4cc(c3)Nc3nc(ncc3Cl)Nc3cccc(c3)CC4)CC2)c1 [Example B198, tris(trifluoroacetate)]
2. Cn1ccc(C(=O)Nc2cc3cc(c2)Nc2nc(ncc2Cl)Nc2cccc(c2)CC3)n1 [Example B207, trifluoroacetate]
3. O=S(=O)(Nc1ccc2cc1CCc1cccc(c1)Nc1ncc(Cl)c(n1)N2)C1CC1 [Example B158, trifluoroacetate]

1: 2.46; 2: 2.85; 3: -0.31

====

Field: IC50. Provide a value for each of the compounds that follow.
- test_system: TYK2 (Homo sapiens, UniProt P29597)
- Sequence (P29597 whole entry): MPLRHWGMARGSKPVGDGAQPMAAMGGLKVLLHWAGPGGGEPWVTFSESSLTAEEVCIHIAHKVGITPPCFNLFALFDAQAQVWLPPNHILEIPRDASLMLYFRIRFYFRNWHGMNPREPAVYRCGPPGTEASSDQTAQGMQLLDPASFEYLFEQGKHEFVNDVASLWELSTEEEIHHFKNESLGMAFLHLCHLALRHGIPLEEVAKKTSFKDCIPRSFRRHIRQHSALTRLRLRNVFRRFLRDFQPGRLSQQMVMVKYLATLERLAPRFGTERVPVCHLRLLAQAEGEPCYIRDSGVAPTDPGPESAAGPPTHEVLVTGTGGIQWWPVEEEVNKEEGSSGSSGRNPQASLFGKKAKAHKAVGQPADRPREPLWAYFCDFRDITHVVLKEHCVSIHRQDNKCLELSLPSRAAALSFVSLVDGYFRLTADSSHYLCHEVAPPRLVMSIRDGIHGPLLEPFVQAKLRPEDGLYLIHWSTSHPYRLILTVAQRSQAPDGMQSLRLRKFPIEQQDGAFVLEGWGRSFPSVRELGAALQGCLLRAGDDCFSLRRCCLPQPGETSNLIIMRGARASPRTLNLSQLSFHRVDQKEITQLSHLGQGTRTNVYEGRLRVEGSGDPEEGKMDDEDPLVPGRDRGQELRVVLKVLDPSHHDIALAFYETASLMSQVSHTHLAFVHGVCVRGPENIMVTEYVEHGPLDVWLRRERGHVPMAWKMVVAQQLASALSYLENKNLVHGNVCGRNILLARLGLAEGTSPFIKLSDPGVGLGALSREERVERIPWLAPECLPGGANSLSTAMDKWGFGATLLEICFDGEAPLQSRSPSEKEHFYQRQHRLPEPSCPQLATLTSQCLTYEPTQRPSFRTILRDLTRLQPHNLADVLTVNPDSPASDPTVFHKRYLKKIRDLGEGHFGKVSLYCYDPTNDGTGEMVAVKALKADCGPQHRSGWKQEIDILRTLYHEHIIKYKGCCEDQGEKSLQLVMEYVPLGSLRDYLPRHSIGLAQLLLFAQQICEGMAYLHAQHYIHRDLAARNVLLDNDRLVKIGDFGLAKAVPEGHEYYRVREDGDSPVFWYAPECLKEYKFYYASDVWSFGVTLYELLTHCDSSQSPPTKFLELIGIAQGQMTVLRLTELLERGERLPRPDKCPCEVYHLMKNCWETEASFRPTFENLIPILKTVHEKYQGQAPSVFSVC
- assay_notes: TYK2 kinase inhibition (Table A1)
- Assay type: biochemical
- settings: Table D1
Structures can show the parent of a compound that is named as a salt.
Give bare numbers, in nM.

Please list IC50 recorded for the compound O=C(CC1CN(c2nccs2)C1)Nc1ccc2cc1CCc1cncc(c1)Nc1ncc(Cl)c(n1)N2 [Example D152, tris(trifluoroacetate)] 265

For the compound C[N+]1(C)CCN(c2ccc3cc2CCc2cccc(c2)Nc2ncc(Cl)c(n2)N3)CC1 [Example D86] , give its measured IC50 value. 268

Identify measured IC50 associated with O=C(CC1CN(c2nc3ccccc3s2)C1)Nc1ccc2cc1CCc1cncc(c1)Nc1ncc(Cl)c(n1)N2 [Example D138, tris(trifluoroacetate)] 500

Entry Clc1cnc2nc1Nc1cccc(c1)SCCOc1cccc(c1)N2 [Example D11, trifluoroacetate] needs its IC50 filled in; supply it. 9.9

Supply measured IC50 of Clc1cnc2nc1Nc1cccc(c1)OCCc1cc(CN3CCOCC3)cc(c1)N2 [Example D189, bis(trifluoroacetate)] in your reply. 5.2

Would you be so kind as to report IC50 for each listed record?
1. O=S(=O)(Nc1cc2cc(c1)OCCSc1cccc(c1)Nc1nc(ncc1Cl)N2)c1ccccc1 [Example D68, trifluoroacetate]
2. CC(C)(C)NC(=O)N1CCN(c2cc(-c3cc4cc(c3)Nc3ncc(Cl)c(n3)Nc3cccc(c3)OCC4)ccn2)CC1 [Example D41, bis(trifluoroacetate)]
3. NC(=O)N1CCN(c2ccc(-c3cc4cc(c3)Nc3ncc(Cl)c(n3)Nc3cccc(c3)OCC4)cn2)CC1 [Example D40, bis(trifluoroacetate)]

32
6.2
2.1

====

- test_system: Recombinant Human Anaplastic Lymphoma Kinase (Homo sapiens)
- Construct: purchased Invitrogen, Carlsbad, Calif
- Sequence (Q9UM73 19-1620): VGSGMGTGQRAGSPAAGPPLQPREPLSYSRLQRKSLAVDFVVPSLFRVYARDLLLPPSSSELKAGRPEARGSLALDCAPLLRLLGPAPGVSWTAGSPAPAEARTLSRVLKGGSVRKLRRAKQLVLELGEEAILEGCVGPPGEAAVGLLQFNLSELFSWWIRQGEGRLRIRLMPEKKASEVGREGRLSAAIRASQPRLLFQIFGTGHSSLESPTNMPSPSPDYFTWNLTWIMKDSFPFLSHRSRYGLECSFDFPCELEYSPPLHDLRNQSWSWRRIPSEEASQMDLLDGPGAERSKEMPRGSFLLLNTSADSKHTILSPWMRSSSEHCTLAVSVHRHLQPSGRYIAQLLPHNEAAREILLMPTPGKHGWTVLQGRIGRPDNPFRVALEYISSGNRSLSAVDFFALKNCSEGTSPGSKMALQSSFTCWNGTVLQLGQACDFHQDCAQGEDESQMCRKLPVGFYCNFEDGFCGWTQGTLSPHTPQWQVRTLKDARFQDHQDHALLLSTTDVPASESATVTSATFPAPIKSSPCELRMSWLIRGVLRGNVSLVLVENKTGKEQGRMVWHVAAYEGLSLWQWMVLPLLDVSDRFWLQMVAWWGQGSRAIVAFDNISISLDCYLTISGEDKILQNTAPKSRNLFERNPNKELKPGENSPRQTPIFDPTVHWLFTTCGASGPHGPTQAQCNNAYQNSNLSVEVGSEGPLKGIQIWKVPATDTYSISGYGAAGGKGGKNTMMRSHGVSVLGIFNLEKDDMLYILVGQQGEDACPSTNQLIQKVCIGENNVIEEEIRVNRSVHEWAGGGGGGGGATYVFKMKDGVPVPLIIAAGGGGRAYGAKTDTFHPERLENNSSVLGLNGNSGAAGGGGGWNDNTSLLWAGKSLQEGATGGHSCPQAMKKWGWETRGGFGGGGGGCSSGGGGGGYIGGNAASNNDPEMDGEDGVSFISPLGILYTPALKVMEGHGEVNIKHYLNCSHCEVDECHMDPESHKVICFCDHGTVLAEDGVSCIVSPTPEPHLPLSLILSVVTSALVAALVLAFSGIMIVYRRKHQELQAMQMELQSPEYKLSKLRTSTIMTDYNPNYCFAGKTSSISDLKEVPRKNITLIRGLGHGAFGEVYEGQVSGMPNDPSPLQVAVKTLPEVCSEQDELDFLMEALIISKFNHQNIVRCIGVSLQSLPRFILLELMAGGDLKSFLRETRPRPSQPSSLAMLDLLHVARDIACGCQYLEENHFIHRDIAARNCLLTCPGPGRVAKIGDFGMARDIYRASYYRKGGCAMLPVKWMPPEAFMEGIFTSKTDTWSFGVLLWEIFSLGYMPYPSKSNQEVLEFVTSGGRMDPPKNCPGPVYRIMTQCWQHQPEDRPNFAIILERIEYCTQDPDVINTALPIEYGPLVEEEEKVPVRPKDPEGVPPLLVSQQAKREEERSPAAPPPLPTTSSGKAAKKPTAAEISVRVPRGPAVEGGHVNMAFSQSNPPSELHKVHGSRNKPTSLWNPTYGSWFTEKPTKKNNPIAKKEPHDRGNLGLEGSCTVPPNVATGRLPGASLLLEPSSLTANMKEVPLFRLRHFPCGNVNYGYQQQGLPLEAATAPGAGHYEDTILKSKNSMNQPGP
- assay_notes: ALK HTRF kinase assay
- Assay type: biochemical
- settings: compound at a concentration of 500 nM or 1 mM (not specified); cells shown as percentage
Where a name gives a salt, the structure may show the parent alone.
quantity_name: ALK % of inhibition at a concentration of 500 nM or 1 mM

For COc1cccc(NC(=O)Nc2ccc3cc2CCc2cccc(c2)Nc2ncc(Cl)c(n2)N3)c1 [Example B100, trifluoroacetate] , write its ALK % of inhibition at a concentration of 500 nM or 1 mM. 44%

# return recorded ALK % of inhibition at a concentration of 500 nM or 1 mM for entry O=C(NCc1ccco1)Nc1ccc2cc1CCc1cccc(c1)Nc1ncc(Cl)c(n1)N2 [Example B117, trifluoroacetate] 21%

Name the recorded ALK % of inhibition at a concentration of 500 nM or 1 mM of the item O=S(=O)(Nc1ccc2cc1CCc1cccc(c1)Nc1ncc(Cl)c(n1)N2)c1cccc2cccnc12 [Example B160, bis(trifluoroacetate)] in your answer. 4.6%

Continuing:
Please report ALK % of inhibition at a concentration of 500 nM or 1 mM for the following compound: CC(C)(C)OC(=O)N1CCCC(NC(=O)Nc2ccc3cc2CCc2cccc(c2)Nc2ncc(Cl)c(n2)N3)C1 (stereo not shown) 6.2%

====

- test_system: human JAK3 (a.a. 781-1124) (Homo sapiens, UniProt P52333)
- Construct: JAK3 (a.a. 781-1124); His tag (N); made in house; host or cells: insect cells (baculovirus)
- Sequence (P52333 781-1124): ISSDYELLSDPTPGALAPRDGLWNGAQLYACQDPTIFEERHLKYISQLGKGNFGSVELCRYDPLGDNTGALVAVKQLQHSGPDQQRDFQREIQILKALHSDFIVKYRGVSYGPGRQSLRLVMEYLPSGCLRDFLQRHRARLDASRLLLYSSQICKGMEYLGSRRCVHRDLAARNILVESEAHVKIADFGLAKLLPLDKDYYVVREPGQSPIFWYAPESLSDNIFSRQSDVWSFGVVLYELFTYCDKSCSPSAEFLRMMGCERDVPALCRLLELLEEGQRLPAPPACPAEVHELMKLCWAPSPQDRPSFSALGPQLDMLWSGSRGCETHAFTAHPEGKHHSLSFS
- assay_notes: In vitro JAK kinase assay (HTRF, phosphorylation of a biotinylated peptide), JAK3
- Format: biochemical
- settings: method AA1 (3 μM ATP) or AA2 (1000 μM ATP), not stated per value
Counter-ions that a name gives are not always drawn.
quantity_name: IC50 (nM)
One number for each entry, in nM.

# example entries with known answers
For the compound C[C@H](O)C(=O)Nc1ccc2cc1CCc1cccc(c1)Nc1ncc(Cl)c(n1)N2 [Example A106, trifluoroacetate] , report IC50. 6.2

Fill in reported IC50 for this entry: NC(=O)COc1cc2cc(c1)Nc1nc(ncc1Cl)Nc1cccc(c1)CC2 [Example A23] 22

Fill in IC50 for record CCOC(=O)CNC(=O)N1CCC(C(=O)Nc2ccc3cc2CCc2cccc(c2)Nc2ncc(Cl)c(n2)N3)CC1 [Example A60, trifluoroacetate] 14

Now examine the next entry.
Identify IC50 associated with the compound CC(C)S(=O)(=O)N1CCC(CC(=O)Nc2ccc3cc2CCc2cncc(c2)Nc2ncc(Cl)c(n2)N3)CC1 [Example A97, bis(trifluoroacetate)] 34

====

- test_system: TYK2 (Homo sapiens, UniProt P29597)
- assay_notes: TYK2 kinase inhibition (Table A1)
- Assay type: biochemical
Where a name gives a salt, the structure may show the parent alone.
quantity_name: IC50 (µM)
Answers are plain numbers, in µM.

// known answers, use as guide
Give the value of IC50 reported for the following: Cc1noc(C)c1C(=O)N1CCC(C(=O)Nc2ccc3cc2CCc2cccc(c2)Nc2ncc(Cl)c(n2)N3)CC1 [Example A34, trifluoroacetate] 0.343

// fetch IC50 given entry O=C(CC1CCN(c2ccnc(F)c2)CC1)Nc1ccc2cc1CCc1cncc(c1)Nc1ncc(Cl)c(n1)N2 [Example A244, tris(trifluoroacetate)] 0.17

Quickly give me recorded IC50 for Clc1cnc2nc1Nc1cccc(c1)CCc1cccc(c1)N2 [Example A2, trifluoroacetate] 0.035

For the compound Oc1ccc2cc1Nc1nc(ncc1Cl)Nc1cccc(c1)CC2 [Example A26, trifluoroacetate] , give its measured IC50 value. 0.045

Identify measured IC50 corresponding to Oc1cc2cc(c1)Nc1nc(ncc1Cl)Nc1cccc(c1)CC2 [Example A22, trifluoroacetate] 0.022

Please indicate IC50 recorded for CCOC(=O)CNC(=O)N1CCC(C(=O)Nc2ccc3cc2CCc2cccc(c2)Nc2ncc(Cl)c(n2)N3)CC1 [Example A60, trifluoroacetate] 0.022

Indicate the recorded IC50 value for this compound: Cc1ncoc1C(=O)N1CCC(CC(=O)Nc2ccc3cc2CCc2cncc(c2)Nc2ncc(Cl)c(n2)N3)CC1 [Example A132, bis(trifluoroacetate)] 0.017

Fill in reported IC50 for this entry: O=C(Nc1ccc2cc1CCc1cccc(c1)Nc1ncc(Cl)c(n1)N2)C1CCN(C(=S)Nc2ccccc2)CC1 [Example A43, trifluoroacetate] 0.048

Hey, quick one: what's IC50 for each of these?
1. Cc1nc(CC(=O)Nc2ccc3cc2CCc2cccc(c2)Nc2ncc(Cl)c(n2)N3)c(C)s1 [Example C46, trifluoroacetate]
2. COc1cccc(NC(=O)N2CCC(C(=O)Nc3ccc4cc3CCc3cccc(c3)Nc3ncc(Cl)c(n3)N4)CC2)c1 [Example A38, trifluoroacetate]
3. O=C(Nc1ccc2cc1CCc1cccc(c1)Nc1ncc(Cl)c(n1)N2)[C@@H]1CCNC1 [Example A45, bis(trifluoroacetate)]
4. O=C(Nc1ccc2cc1CCc1cccc(c1)Nc1ncc(Cl)c(n1)N2)C1CCCN(C(=O)c2ccccc2)C1 (stereo not shown) [Example A48, trifluoroacetate]
5. O=C(Nc1ccc2cc1CCc1cccc(c1)Nc1ncc(Cl)c(n1)N2)[C@@H]1CCN(C(=O)NC2CCCC2)C1 [Example A63, trifluoroacetate]
6. Nc1nc(C(=O)N2CCC(CC(=O)Nc3ccc4cc3CCc3cncc(c3)Nc3ncc(Cl)c(n3)N4)CC2)cs1 [Example A217, tris(trifluoroacetate)]
7. Cc1ncsc1CCC(=O)Nc1ccc2cc1CCc1cccc(c1)Nc1ncc(Cl)c(n1)N2 [Example C48, trifluoroacetate]
8. O=C(CC1CCN(c2ccccn2)CC1)Nc1ccc2cc1CCc1cncc(c1)Nc1ncc(Cl)c(n1)N2 [Example A170, tris(trifluoroacetate)]

1: 0.165; 2: 0.048; 3: 0.039; 4: 0.092; 5: 0.013; 6: 0.055; 7: 0.647; 8: 0.25

Your task in this section: give IC50 for each listed record.
1. O=C(c1ccccc1)N1Cc2cccc(c2)Nc2ncc(Cl)c(n2)Nc2cccc1c2 [Example C22]
2. CC(C)(C)NC(=O)N1CCC(CC(=O)Nc2ccc3cc2CCc2cncc(c2)Nc2ncc(Cl)c(n2)N3)CC1 [Example A113, bis(trifluoroacetate)]

[0.088, 0.061]
